The values you see were collected from the nanobody polyreactivity screen of Harvey et al. (2022).

Experimental Protocol: yeast display, Sf9 membrane polyspecificity reagent, FACS + sequencing; frameworks hold sequencing errors
Assay Endpoint: polyreactivity (PSR sort gate)

Worked cases, answers included:
{"columns": ["Ordered Residues", "polyreactivity (PSR sort gate)"],
 "data": [
  ["QVQLVESGGGLVQAGGSLRLSCAASGLTFLIYAMGWYIQAPRKERELVASITGRGGSTYYADSVKGRFTISRDNAKNTVYLQMNCLKPEDTAVYYCAASLRYYGLEMDYWGQGTQVTVSS", "high polyreactivity"],
  ["QVQLVESGGCLVQAGGSLRLSCAASGFTFGRYAMGWYRQAPGKEREFVAAISYTGTSTYYADSVKGRFTISRDNAKNTVYLQMNSLKPEDTAVYYCNAVHPGTVAYDSWGQGTQVTVSS", "high polyreactivity"],
  ["QVQLVESGGGLVQAGGSLRLSCAASGRILYWYTMGWYRQAPGKERELVAAITDSVGRTYYADSVKGRFTISRDNAKNTVYLQMNSLKPEDTAVYYCNADPYAQQPYSYYYGYDYWGQGTQVTVSS", "low polyreactivity"],
  ["QVQLVESGGGLVQAGGSLRLSCAASGRILRSYAMGWYRQAPGKERELVAAISWRGGSTYYADSVKGRFTISRDNAKNTVYLQMNSLKPEDTAVYYCAKRSYYPARYDYWGQGTQVTVSS", "high polyreactivity"]
]}

In the following, a different sequence is considered.
Input line: Fill blank: measured polyreactivity (PSR sort gate) of the sequence `QVQLVESGGGLVQAGGSLRLSCAASGIIFFYNAMGWYRQAPGKERELVAAIRRGGRTNYADSVKGRFTISRDNAKNTVYLQMNSLKPEDTAVYYCNKDFYPGDYWGQGTQVTVSS` is ____.
Output line: low polyreactivity
